Recorded values, source ChEMBL document CHEMBL1201862.

Readout: AC50

// map O=C(NC1CCCC1)C1CC(c2ccc(F)cc2)=NO1 (stereo not drawn) to recorded AC50 (system: Cytochrome P450 3A4 (Homo sapiens))
Sequence (P08684 whole entry): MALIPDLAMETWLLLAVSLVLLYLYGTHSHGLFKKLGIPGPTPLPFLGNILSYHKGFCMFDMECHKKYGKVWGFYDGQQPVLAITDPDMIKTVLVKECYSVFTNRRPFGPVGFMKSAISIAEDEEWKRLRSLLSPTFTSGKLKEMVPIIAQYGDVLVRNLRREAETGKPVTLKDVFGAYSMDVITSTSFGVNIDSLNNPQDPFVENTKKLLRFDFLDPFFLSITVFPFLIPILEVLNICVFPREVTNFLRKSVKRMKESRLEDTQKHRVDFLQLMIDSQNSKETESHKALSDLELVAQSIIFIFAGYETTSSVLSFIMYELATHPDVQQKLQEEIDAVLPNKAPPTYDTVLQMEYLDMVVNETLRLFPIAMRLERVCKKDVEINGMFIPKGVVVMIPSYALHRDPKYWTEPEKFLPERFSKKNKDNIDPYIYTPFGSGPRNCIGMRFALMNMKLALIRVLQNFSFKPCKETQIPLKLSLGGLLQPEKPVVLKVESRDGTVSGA
25.1 µM (inconclusive)

Look up AC50 with Cytochrome P450 3A4 (Homo sapiens) for this molecule: `O=C1c2cccc([N+](=O)[O-])c2C(=O)N1c1ncn[nH]1`
3.98 µM (inconclusive)

Value wanted: AC50 (Cytochrome P450 3A4 (Homo sapiens)) of entry `C/C(=N\OC(=O)NC(C)C)c1sc(-c2ccccc2)nc1C`
25.1 µM (inconclusive)

Tell me reported AC50 for `O=C(c1cc(-c2cccs2)on1)N1CCN(c2ccc(F)cc2)CC1` , tested with Cytochrome P450 3A4 (Homo sapiens).
20 µM (inconclusive)

Form entry - test system: Cytochrome P450 3A4 (Homo sapiens); read-out: AC50; molecule: `CCNc1ncc2nc(-c3ccccc3)c(=O)n(CCC#N)c2n1`
25.1 µM (inconclusive)

Hi! What's the reported AC50 for `CCOc1ccc2nc(N3CCCCCC3)sc2c1` on Cytochrome P450 3A4 (Homo sapiens)?
35.5 µM (inconclusive)

Hi! What's the reported AC50 for CC(=O)NC(C)C(c1cccs1)N1CCN(c2ccccc2)CC1 (stereo not drawn) on Cytochrome P450 3A4 (Homo sapiens)?
39.8 µM (inconclusive)

Lab note: need AC50 with Cytochrome P450 3A4 (Homo sapiens) for entry Cc1ccc(CN(C(=O)c2cc3ccccc3oc2=O)C2CCS(=O)(=O)C2)cc1 (stereo not drawn) , please look it up.
4.47 µM (inconclusive)

// fetch Cytochrome P450 3A4 (Homo sapiens) AC50 for `CCN(CC)C(=O)CCNS(=O)(=O)c1ccc(C)cc1`
25.1 µM (inconclusive)

AC50 of `Cn1c(=O)c2c(nc(N3CCN(c4ccccn4)CC3)n2Cc2ccccc2Cl)n(C)c1=O` on Cytochrome P450 3A4 (Homo sapiens)?
1.26 µM (inconclusive)

Lab request: please report AC50 under test system Cytochrome P450 3A4 (Homo sapiens) for `Fc1ccc(C2=Nn3c(Cc4ccccc4F)nnc3SC2)cc1`
12.6 µM (inconclusive)

Find the measured AC50: item `Cc1cc2ccccn2c1C(=O)c1nc(N2CCOCC2)ncc1Cl` , target or system Cytochrome P450 3A4 (Homo sapiens).
28.2 µM (inconclusive)

Missing value: AC50, Cytochrome P450 3A4 (Homo sapiens), entry `CCCCN1C(=O)/C(=C\c2ccco2)C(=O)N(CCc2ccccc2)C1=O` . Fill in?
12.6 µM (inconclusive)

Cytochrome P450 3A4 (Homo sapiens) / AC50 / `COc1cc2cc3c(N)c(C(=O)Nc4sc(C)c(C)c4C#N)sc3nc2cc1OC` : value?
8.91 µM (inconclusive)

Notebook: pull reported AC50 for Cytochrome P450 3A4 (Homo sapiens), entry `COc1cccc2c(O)c(C(=O)NCc3cccs3)cnc12`
1.78 µM (inconclusive)

For Cytochrome P450 3A4 (Homo sapiens), provide AC50 of `C[N+](C)(CCCCCC[N+](C)(C)CCCN1C(=O)c2cccc3cccc(c23)C1=O)CCCN1C(=O)c2cccc3cccc(c23)C1=O` please.
2.51 µM (inconclusive)

Give Cytochrome P450 3A4 (Homo sapiens) AC50 for `Nc1c(S(=O)(=O)O)cc(Nc2cccc(S(N)(=O)=O)c2)c2c1C(=O)c1ccccc1C2=O`
7.94 µM (inconclusive)

Form: Entry = `Cc1nnc(S)n1/N=C/c1ccc(Br)o1` | System = Cytochrome P450 3A4 (Homo sapiens) | AC50 = ____
25.1 µM (inconclusive)

Hello, I am looking for reported AC50 with Cytochrome P450 3A4 (Homo sapiens) for `O=C1[C@@H]2[C@H]3[C@H](O)[C@H](O)C/C(=N/OC[C@@H](O)COCc4ccco4)[C@H]3CC[C@H]2C(=O)N1c1ccc(F)cc1F` . Could you help?
3.16 µM (inconclusive)

Identify the measured AC50 of `Cc1nc2cnc(OCc3ccccc3)nc2n(CCC#N)c1=O` for Cytochrome P450 3A4 (Homo sapiens).
3.98 µM (inconclusive)

Param readout= AC50; system= Cytochrome P450 3A4 (Homo sapiens); entry= `Cc1cnc(CNc2ccnc(-c3ccc(N(C)C)cc3)n2)cn1` ; returns value.
10 µM (inconclusive)

Param readout = AC50; param system = Cytochrome P450 3A4 (Homo sapiens); param query = `CN(C)c1ncc2nc(-c3cc(F)cc(F)c3)c(=O)n(CCC#N)c2n1` ; response: value
39.8 µM (inconclusive)

Lookup: AC50 / Cytochrome P450 3A4 (Homo sapiens) / `CCOC(=O)c1ccc(N/C=C/C(=O)c2ccc(OC)cc2)cc1`
6.31 µM (inconclusive)

Return AC50 measured with Cytochrome P450 3A4 (Homo sapiens) given this molecule: `CCCN(CCC)C[C@@H]1CCCCN1CCNC(=O)N1c2ccccc2C(=O)Nc2cccnc21`
15.8 µM (inconclusive)

Notebook entry, Cytochrome P450 3A4 (Homo sapiens) assay: AC50 of `CNc1nc(-c2ccccc2C)nc2ccccc12` = ?
20 µM (inconclusive)

Missing value: AC50, Cytochrome P450 3A4 (Homo sapiens), entry `Cc1ccc2[nH]c3nc(CCCn4ccnc4-c4ccccc4)nnc3c2c1` . Fill in?
3.16 µM (inconclusive)

Please state recorded AC50 (tested on Cytochrome P450 3A4 (Homo sapiens)) of `O=C(c1csnn1)N1CCC2(CC1)CN(Cc1ccncc1)C2`
15.8 µM (inconclusive)

I'm curious: which AC50 was measured for `O=[N+]([O-])c1ccc(N2CCN(CCOc3nonc3-c3ccccc3)CC2)c(Cl)c1` tested on Cytochrome P450 3A4 (Homo sapiens)?
14.1 µM (inconclusive)

# get_value(readout= AC50, system= Cytochrome P450 3A4 (Homo sapiens)) for `COc1ccccc1CNc1ncncc1-c1ccccc1C`
0.398 µM (inconclusive)

Param readout= AC50; system= Cytochrome P450 3A4 (Homo sapiens); entry= CCC(C)Nc1c([N+](=O)[O-])cc(C)cc1[N+](=O)[O-] (stereo not drawn) ; returns value.
25.1 µM (inconclusive)

Which measured AC50 belongs to O=C(CC1C(=O)NCCN1C(=S)Nc1ccccc1)Nc1ccc2c(c1)OCCO2 (stereo not drawn) , tested on Cytochrome P450 3A4 (Homo sapiens)?
25.1 µM (inconclusive)

So what AC50 did `COc1cc(-c2nnc(-c3ccc(N4CCOCC4)cc3)o2)cc(OC)c1OC` get with Cytochrome P450 3A4 (Homo sapiens)?
7.94 µM (inconclusive)

Please provide the recorded AC50 for `CNCCC=C1c2ccccc2C=Cc2ccccc21` , tested on Cytochrome P450 3A4 (Homo sapiens).
12.6 µM (inconclusive)

Return AC50 measured with Cytochrome P450 3A4 (Homo sapiens) given this molecule: `CCOC(=O)c1cc(NC(=O)c2ccc(C)cc2)c(=O)oc1-c1ccccc1`
28.2 µM (inconclusive)

Query for Cytochrome P450 3A4 (Homo sapiens): what AC50 does the record show for `CC1(C)[C@@H]2CC[C@@](C)(C2)[C@H]1OC(=O)c1ccccc1C(=O)O` ?
3.98 µM (inconclusive)

Give AC50 (Cytochrome P450 3A4 (Homo sapiens)) of the following molecule: `CC(C)NC(=O)N1CC[C@@]2(CCCN(S(=O)(=O)c3ccccc3)C2)C1`
20 µM (inconclusive)

Requested read-out AC50, target or system Cytochrome P450 3A4 (Homo sapiens), entry `COc1ccc(/C=C(/C#N)C(=O)NC2CCCCC2)cc1Br`
25.1 µM (inconclusive)

Param readout = AC50; param system = Cytochrome P450 3A4 (Homo sapiens); param query = `Cc1noc(C)c1C(=O)N1CCC[C@@]2(CCN(Cc3cc(C(F)(F)F)cc(C(F)(F)F)c3)C2)C1` ; response: value
7.94 µM (inconclusive)

What value of AC50 on Cytochrome P450 3A4 (Homo sapiens) does `O=C(NCc1nc2ccccc2[nH]1)[C@H]1C[C@@H]1[C@H](NP(=O)(c1ccccc1)c1ccccc1)c1ccccc1` have?
0.794 µM (inconclusive)

Recall the recorded AC50 for `O=c1c(-c2ccc(F)c(F)c2)nc2cncnc2n1Cc1ccccc1Cl` with Cytochrome P450 3A4 (Homo sapiens) and state it.
12.6 µM (inconclusive)

So what AC50 did `COCCNc1nc(-c2ccoc2)nc2ccccc12` get with Cytochrome P450 3A4 (Homo sapiens)?
12.6 µM (inconclusive)

Given the entry `Cc1cnc2cc(Cl)ccc2c1SCC(=O)O` , what AC50 was observed with Cytochrome P450 3A4 (Homo sapiens)?
3.98 µM (inconclusive)

API: value(readout= AC50, system= Cytochrome P450 3A4 (Homo sapiens), query= `COC(=O)N1CCC2(CCCN(c3ccc(-c4ccccc4)cc3)C2)CC1` );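 note: CYP3A4 tested as one member of a cytochrome P450 panel screen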
39.8 µM (inconclusive)

* * *

Target: Fatty acid synthase (Homo sapiens, UniProt P49327)
Sequence (P49327 whole entry, the tested form may be a part): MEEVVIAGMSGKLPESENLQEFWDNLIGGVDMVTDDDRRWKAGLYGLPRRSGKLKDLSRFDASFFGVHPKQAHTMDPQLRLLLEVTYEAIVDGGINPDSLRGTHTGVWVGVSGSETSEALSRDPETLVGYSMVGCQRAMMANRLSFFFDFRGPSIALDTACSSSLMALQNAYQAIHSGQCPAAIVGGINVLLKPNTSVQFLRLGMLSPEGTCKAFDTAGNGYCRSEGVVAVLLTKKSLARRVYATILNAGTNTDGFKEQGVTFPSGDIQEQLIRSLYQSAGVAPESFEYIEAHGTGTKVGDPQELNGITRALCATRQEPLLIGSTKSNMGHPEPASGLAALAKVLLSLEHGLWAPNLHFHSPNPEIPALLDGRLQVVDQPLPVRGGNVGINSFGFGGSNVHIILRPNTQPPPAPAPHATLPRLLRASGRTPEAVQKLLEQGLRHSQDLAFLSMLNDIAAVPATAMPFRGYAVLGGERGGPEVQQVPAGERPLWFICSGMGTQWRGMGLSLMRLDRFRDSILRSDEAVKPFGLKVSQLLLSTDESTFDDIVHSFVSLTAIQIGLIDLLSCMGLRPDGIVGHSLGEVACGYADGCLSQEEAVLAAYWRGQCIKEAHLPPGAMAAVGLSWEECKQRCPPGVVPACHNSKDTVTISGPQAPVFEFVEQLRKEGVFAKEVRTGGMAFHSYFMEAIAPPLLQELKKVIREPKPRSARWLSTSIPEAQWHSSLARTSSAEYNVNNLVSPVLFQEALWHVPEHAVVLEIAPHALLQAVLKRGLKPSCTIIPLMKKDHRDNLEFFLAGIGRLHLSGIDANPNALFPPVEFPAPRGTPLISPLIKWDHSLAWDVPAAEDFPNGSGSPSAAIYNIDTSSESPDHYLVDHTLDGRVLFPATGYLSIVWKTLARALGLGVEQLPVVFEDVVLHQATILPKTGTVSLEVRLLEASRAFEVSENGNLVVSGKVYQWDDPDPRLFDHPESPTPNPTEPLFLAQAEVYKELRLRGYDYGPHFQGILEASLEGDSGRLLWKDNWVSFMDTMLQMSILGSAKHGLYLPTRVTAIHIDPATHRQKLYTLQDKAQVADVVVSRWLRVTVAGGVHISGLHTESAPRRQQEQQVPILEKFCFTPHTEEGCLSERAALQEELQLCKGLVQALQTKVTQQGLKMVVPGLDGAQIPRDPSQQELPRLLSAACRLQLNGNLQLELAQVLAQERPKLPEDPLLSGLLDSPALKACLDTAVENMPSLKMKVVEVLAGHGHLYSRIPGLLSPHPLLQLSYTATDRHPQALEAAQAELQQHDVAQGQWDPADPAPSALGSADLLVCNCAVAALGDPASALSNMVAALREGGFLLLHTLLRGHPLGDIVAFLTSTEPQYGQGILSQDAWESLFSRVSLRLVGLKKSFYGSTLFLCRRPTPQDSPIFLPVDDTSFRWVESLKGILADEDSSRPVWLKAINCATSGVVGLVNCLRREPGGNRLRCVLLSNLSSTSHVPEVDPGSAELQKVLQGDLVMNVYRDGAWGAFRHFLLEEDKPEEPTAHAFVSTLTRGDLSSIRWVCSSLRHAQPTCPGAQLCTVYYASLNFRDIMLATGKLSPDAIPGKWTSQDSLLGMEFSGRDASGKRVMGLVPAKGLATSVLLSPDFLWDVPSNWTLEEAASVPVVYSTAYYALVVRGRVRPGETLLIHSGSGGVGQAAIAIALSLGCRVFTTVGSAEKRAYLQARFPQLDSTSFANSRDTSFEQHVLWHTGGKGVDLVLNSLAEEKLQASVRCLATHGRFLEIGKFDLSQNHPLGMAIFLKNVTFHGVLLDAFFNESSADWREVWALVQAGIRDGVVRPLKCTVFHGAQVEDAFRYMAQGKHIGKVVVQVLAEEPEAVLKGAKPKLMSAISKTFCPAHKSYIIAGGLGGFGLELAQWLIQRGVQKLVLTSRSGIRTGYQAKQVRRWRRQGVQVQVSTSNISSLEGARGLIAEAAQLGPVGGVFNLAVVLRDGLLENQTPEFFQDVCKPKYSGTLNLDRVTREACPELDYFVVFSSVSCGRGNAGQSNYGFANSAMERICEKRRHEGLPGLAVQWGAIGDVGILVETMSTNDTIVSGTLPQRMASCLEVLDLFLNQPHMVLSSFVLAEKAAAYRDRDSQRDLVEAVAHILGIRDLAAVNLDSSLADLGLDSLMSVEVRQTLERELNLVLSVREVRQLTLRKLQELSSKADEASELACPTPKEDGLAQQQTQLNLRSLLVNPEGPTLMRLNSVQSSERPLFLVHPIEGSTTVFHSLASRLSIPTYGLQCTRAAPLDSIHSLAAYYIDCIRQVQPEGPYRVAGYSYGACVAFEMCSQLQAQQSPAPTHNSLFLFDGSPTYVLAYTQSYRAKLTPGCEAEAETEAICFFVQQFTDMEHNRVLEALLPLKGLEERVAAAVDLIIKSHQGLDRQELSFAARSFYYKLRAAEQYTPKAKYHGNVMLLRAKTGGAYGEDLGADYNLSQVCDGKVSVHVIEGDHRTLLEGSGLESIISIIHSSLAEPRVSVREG
Test: FAS thioesterase domain inhibitors, dose response, biochemical, endpoint fluorescence intensity, uHTS hits (AID 624327);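 note: fluorescence from hydrolysis of an O-methyl fluorescein acyl ester substrate by the enzyme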
Type: functional
Calls of active or inactive are those of the source.
Readout: IC50

Find the recorded IC50 belonging to `O=C(COC(=O)c1cc([N+](=O)[O-])ccc1N1CCOCC1)NCc1ccc(F)cc1` and report it.
1.44 µM (active)

Name the reported IC50 value associated with the molecule CC(C)(C)c1ccc(C(=O)N2CCC2(C)C(=O)NS(=O)(=O)c2ccc(C#N)cc2)cc1 (stereo not given)
9.51 µM (active)

What IC50 value was documented for this molecule, `Cc1ccc(COC(=O)c2cc([N+](=O)[O-])ccc2N2CCOCC2)cc1` ?
10.3 µM (active)

Requested read-out: IC50. Entry: `Cc1ccc(S(=O)(=O)N2[C@@H](c3ccc(C(C)(C)C)cc3)C(C(=O)O)=CC[C@H]2c2ccc(Cl)cc2)cc1`
10.9 µM (active)

Look at this molecule and give its reported IC50. `CC1(C)CC[C@]2(C(=O)n3ccnc3)CC[C@]3(C)[C@H](C(=O)C=C4[C@@]5(C)C=C(C#N)C(=O)C(C)(C)[C@@H]5CC[C@]43C)[C@@H]2C1`
2.85 µM (active)
